test.system: T1, human GIP receptor (human, UniProt P48546 22-466)
T1 sequence (looked up): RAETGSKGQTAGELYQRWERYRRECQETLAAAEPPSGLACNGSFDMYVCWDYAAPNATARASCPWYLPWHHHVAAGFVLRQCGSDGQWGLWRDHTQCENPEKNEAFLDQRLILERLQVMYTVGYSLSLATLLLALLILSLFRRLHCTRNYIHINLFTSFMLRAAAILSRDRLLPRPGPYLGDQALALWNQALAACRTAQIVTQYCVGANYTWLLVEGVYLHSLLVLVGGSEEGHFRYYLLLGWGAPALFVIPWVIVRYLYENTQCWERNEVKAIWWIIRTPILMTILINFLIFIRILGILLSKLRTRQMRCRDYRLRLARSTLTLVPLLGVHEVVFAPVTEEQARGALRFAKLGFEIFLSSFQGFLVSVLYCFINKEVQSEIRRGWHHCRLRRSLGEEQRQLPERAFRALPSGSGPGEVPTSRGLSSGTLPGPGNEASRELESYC
assay.method.text: cell-based or functional assay
outcome.measure: cAMP Emax (1.0% HSA) (%)
Write the number in % without appending the unit.

In the examples that follow, each entry is paired with its recorded cAMP Emax (1.0% HSA).
[
  {
    "binder": "YXEGTXTSDXSKXLDXKAQXEFIXXLIEGGPSSGAPPPS (Aib2, αMeF(2F)6, 4Pal10, αMeL13, Orn16, Aib20, D-Glu24, αMeY25; acylated K12, K17 (groups as in name); C-terminal amide)",
    "cAMP Emax (1.0% HSA) (%)": 93
  },
  {
    "binder": "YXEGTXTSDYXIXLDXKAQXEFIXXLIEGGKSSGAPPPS (Aib2, αMeF(2F)6, αMeS11, αMeL13, Orn16, Aib20, D-Glu24, αMeY25; acylated K17, K31 (groups as in name); C-terminal amide)",
    "cAMP Emax (1.0% HSA) (%)": 92.4
  },
  {
    "binder": "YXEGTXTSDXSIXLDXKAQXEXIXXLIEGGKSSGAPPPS (Aib2, αMeF(2F)6, 4Pal10, αMeL13, Orn16, Aib20, 1Nal22, D-Glu24, αMeY25; acylated K17, K31 (groups as in name); C-terminal amide)",
    "cAMP Emax (1.0% HSA) (%)": 90.6
  }
]

Per the records, this binder ( YXEGTXTSDXSIXLDXIAQXEFIKXLIEGGPSSGAPPPSK (Aib2, αMeF(2F)6, 4Pal10, αMeL13, Orn16, Aib20, αMeY25; acylated K24, K40 (groups as in name); C-terminal amide) ) has cAMP Emax (1.0% HSA) equal to 80.7

Per the records, this binder ( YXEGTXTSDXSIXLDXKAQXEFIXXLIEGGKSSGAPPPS (Aib2, αMeF6, αMeF10, αMeL13, Orn16, Aib20, D-Glu24, αMeY25; acylated K17, K31 (groups as in name); C-terminal amide) ) has cAMP Emax (1.0% HSA) equal to 72.5

Per the records, this binder ( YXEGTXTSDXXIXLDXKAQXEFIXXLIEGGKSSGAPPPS (Aib2, αMeF(2F)6, 4Pal10, αMeS11, αMeL13, Orn16, Aib20, D-Glu24, αMeY25; acylated K17, K31 (groups as in name); C-terminal amide) ) has cAMP Emax (1.0% HSA) equal to 95.6

Per the records, this binder ( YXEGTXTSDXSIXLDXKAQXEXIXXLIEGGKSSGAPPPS (Aib2, αMeF(2F)6, 4Pal10, αMeL13, Orn16, Aib20, αMeF(2F)22, D-Glu24, αMeY25; acylated K17, K31 (groups as in name); C-terminal amide) ) has cAMP Emax (1.0% HSA) equal to 80.3

Per the records, this binder ( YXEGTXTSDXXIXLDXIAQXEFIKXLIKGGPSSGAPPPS (Aib2, αMeF(2F)6, 4Pal10, αMeS11, αMeL13, Orn16, Aib20, αMeY25; acylated K24, K28 (groups as in name); C-terminal amide) ) has cAMP Emax (1.0% HSA) equal to 63.4

Per the records, this binder ( YXEGTXTSDXSIXLDXKAQXGFIXXLIEGGKSSGAPPPS (Aib2, αMeF(2F)6, 4Pal10, αMeL13, Orn16, Aib20, D-Glu24, αMeY25; acylated K17, K31 (groups as in name); C-terminal amide) ) has cAMP Emax (1.0% HSA) equal to 94.2

Per the records, this binder ( YXEGTXTSDXSIXLDXKGQXEFIXXLIEGGKSSGAPPPS (Aib2, αMeF(2F)6, 4Pal10, αMeL13, Orn16, Aib20, D-Glu24, αMeY25; acylated K17, K31 (groups as in name); C-terminal amide) ) has cAMP Emax (1.0% HSA) equal to 96.9

Per the records, this binder ( YXEGTXTSDXSIXLDXKAQXXFIXXLIEGGKSSGAPPPS (Aib2, αMeF(2F)6, 4Pal10, αMeL13, Orn16, Aib20, Orn21, D-Glu24, αMeY25; acylated K17, K31 (groups as in name); C-terminal amide) ) has cAMP Emax (1.0% HSA) equal to 81.3

Per the records, this binder ( YXEGTXTSDXSIXLDXKAQXEFIXXLIXGGKSSGAPPPS (Aib2, αMeF(2F)6, 4Pal10, αMeL13, Orn16, Aib20, D-Glu24, αMeY25, Orn28; acylated K17, K31 (groups as in name); C-terminal amide) ) has cAMP Emax (1.0% HSA) equal to 87.5

Per the records, this binder ( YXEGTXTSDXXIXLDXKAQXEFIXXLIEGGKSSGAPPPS (Aib2, αMeF(2F)6, 4Pal10, Aib11, αMeL13, Orn16, Aib20, D-Glu24, αMeY25; acylated K17, K31 (groups as in name); C-terminal amide) ) has cAMP Emax (1.0% HSA) equal to 94.2

Per the records, this binder ( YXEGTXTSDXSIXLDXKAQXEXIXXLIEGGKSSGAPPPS (Aib2, αMeF(2F)6, 4Pal10, αMeL13, Orn16, Aib20, 3FPhe22, D-Glu24, αMeY25; acylated K17, K31 (groups as in name); C-terminal amide) ) has cAMP Emax (1.0% HSA) equal to 90.5

Per the records, this binder ( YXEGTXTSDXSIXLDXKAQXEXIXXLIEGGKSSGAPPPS (Aib2, αMeF(2F)6, 4Pal10, αMeL13, Orn16, Aib20, 2ClPhe22, D-Glu24, αMeY25; acylated K17, K31 (groups as in name); C-terminal amide) ) has cAMP Emax (1.0% HSA) equal to 92.8
